Biological target: T1, MC5r (human recombinant, CHO cells) (human, UniProt P33032 1-325)
T1 construct: whole, on cells
T1 sequence (P33032 whole entry): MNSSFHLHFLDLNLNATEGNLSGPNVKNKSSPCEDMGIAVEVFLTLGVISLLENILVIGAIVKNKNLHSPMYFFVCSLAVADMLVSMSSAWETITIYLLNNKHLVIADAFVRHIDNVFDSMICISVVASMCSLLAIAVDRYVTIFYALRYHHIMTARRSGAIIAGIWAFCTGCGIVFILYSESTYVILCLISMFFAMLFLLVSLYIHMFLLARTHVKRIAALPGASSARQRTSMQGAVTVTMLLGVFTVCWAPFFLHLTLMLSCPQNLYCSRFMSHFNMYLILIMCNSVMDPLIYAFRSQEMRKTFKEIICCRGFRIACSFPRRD
Assay: displacement of 125I-NDP-αMSH, human recombinant CHO cells expressing MC5r
metric-name: Ki (nM)
Your answer should be a plain number; it is taken to be in nM.

What does the record list as Ki for KSYSMEHFRWGKPV (alpha-amino group of Lys1 acetylated; Ac-Lys-Lys attached to the epsilon-amino group of Lys1 (branched amino acid probe Ac-(Ac-Lys-Lys)Lys-); C-terminal amide) [α-MSH Analogue 1: Ac-(Ac-Lys-Lys)Lys-Ser-Tyr-Ser-Met-Glu-His-Phe-Arg-Trp-Gly-Lys-Pro-Val-NH2] ?
193
